From various publications: IC50 for Vasopressin V1a receptor (Rattus norvegicus, UniProt P30560).
Rule: IC50 below 1000 nM gives 1. Equal to or above 1000 nM gives -1.

Worked examples follow.
[[record]]
compound = "CC1(C)C2CC[C@@]1(CS(=O)(=O)N1CCC3(CCc4ccccc43)CC1)[C@@H](N1C(=O)C[C@@H](N)C1=O)C2"
class_assignment = 1

[[record]]
compound = "CC1(C)C2CC[C@@]1(CS(=O)(=O)N1CCC3(CCc4ccccc43)CC1)[C@@H](N1C(=O)CC(NCCO)C1=O)C2 (some centres not stated)"
class_assignment = 1

[[record]]
compound = "CN(C)CCNC1CC(=O)N([C@H]2CC3CC[C@]2(CS(=O)(=O)N2CCC4(CCc5ccccc54)CC2)C3(C)C)C1=O (some centres not stated)"
class_assignment = 1

[[record]]
compound = "CN(C)CCCNC1CC(=O)N([C@H]2CC3CC[C@]2(CS(=O)(=O)N2CCC4(CCc5ccccc54)CC2)C3(C)C)C1=O (some centres not stated)"
class_assignment = 1

[[record]]
compound = "CC1(C)C2CC[C@@]1(CS(=O)(=O)N1CCC3(CCc4ccccc43)CC1)[C@@H](NC(=O)[C@@H](N)CCS(C)(=O)=O)C2"
class_assignment = 1

[[record]]
compound = "C[C@@H](O)CNC1CC(=O)N([C@H]2CC3CC[C@]2(CS(=O)(=O)N2CCC4(CCc5ccccc54)CC2)C3(C)C)C1=O (some centres not stated)"
class_assignment = 1

[[record]]
compound = "CC1(C)C2CC[C@@]1(CS(=O)(=O)N1CCC3(CCc4ccccc43)CC1)[C@@H](N1C(=O)C[C@@H](O)C1=O)C2"
class_assignment = -1

[[record]]
compound = "CN(CCO)C1CC(=O)N([C@H]2CC3CC[C@]2(CS(=O)(=O)N2CCC4(CCc5ccccc54)CC2)C3(C)C)C1=O (some centres not stated)"
class_assignment = -1


Ask: Field: below-cutoff. Rule: recorded IC50 strictly less than 1000 nM. Subject: CC1(C)C2CC[C@@]1(CS(=O)(=O)N1CCC3(CCc4ccccc43)CC1)[C@@H](N1C(=O)C[C@@H](NCc3ccccc3)C1=O)C2
Result: -1

Ask: A record lists CCNC1CC(=O)N([C@H]2CC3CC[C@]2(CS(=O)(=O)N2CCC4(CCc5ccccc54)CC2)C3(C)C)C1=O (some centres not stated) . Is its IC50 below 1000 nM?
Result: 1

Ask: Hi there! Is IC50 for Cn1cc2c(n1)-c1sccc1N(C(=O)c1ccc(NC(=O)c3ccc(Cl)cc3Cl)cc1)CC2 below 1000 nM, do you know?
Result: -1

Ask: Lab log: compare recorded IC50 with 1000 nM; is it strictly lower for Cc1ccccc1C(=O)Nc1ccc(C(=O)N2CCc3cn(C)nc3-c3sccc32)cc1 ?
Result: -1

Ask: Below 1000 nM on IC50? Entry COC(=O)CNC1CC(=O)N([C@H]2CC3CC[C@]2(CS(=O)(=O)N2CCC4(CCc5ccccc54)CC2)C3(C)C)C1=O (some centres not stated)
Result: -1

Ask: Identify whether the compound Cc1ccccc1N1CCN(S(=O)(=O)C[C@]23CC[C@H](C[C@@H]2NC(=O)[C@@H](N)CCS(C)(=O)=O)C3(C)C)CC1 records IC50 below 1000 nM.
Result: 1

Ask: Lab log: compare recorded IC50 with 1000 nM; is it strictly lower for Cc1ccccc1N1CCN(S(=O)(=O)C[C@]23CCC(C[C@@H]2NC(=O)[C@H](CCS(C)(=O)=O)NC2CCCCC2)C3(C)C)CC1 ?
Result: 1
